// data source = ChEMBL document CHEMBL1156213

target-or-test-system: Insulin-like growth factor 1 receptor (Homo sapiens, UniProt P08069)
Sequence (P08069 31-736 limits assumed): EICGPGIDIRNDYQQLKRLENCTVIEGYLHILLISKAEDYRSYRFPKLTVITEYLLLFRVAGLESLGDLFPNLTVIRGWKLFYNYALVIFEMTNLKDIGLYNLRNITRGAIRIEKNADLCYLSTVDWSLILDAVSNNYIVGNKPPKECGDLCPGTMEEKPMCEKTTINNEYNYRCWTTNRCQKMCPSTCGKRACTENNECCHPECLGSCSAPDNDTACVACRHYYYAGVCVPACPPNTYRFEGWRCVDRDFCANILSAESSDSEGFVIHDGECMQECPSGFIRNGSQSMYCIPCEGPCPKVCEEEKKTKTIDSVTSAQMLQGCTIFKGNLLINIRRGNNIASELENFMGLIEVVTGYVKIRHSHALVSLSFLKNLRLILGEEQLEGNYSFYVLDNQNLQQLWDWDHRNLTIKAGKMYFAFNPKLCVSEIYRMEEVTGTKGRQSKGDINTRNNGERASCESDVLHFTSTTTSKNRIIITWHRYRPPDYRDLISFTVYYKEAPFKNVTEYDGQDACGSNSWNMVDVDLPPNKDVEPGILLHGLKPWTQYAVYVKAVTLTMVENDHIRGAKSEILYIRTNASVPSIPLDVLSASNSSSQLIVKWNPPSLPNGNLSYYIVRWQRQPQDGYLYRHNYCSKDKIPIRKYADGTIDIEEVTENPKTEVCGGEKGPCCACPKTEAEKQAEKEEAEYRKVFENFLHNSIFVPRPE
Sequence (P08069 741-1367 limits assumed): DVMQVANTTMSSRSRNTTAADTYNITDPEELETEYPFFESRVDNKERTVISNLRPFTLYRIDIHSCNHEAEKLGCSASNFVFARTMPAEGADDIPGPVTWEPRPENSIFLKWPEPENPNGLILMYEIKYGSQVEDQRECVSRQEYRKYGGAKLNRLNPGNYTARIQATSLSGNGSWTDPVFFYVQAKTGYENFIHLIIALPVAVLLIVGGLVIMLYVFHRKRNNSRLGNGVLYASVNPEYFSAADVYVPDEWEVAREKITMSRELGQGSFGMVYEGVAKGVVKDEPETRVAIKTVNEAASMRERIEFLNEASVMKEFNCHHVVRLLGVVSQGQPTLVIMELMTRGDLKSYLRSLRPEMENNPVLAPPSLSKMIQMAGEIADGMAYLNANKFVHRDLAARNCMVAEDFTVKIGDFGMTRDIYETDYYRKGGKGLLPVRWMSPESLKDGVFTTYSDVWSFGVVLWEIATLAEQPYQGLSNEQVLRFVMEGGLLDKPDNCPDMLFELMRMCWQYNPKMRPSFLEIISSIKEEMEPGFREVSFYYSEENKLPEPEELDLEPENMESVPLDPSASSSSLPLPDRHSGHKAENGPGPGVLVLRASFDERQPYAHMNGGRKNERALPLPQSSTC
procedure-details: Inhibition of human recombinant IGF1R expressed in Sf21 cells by time resolved fluorescence assay

>  <record-smiles>
O=C(Nc1cccc(-c2nc3sccn3c2-c2ccnc(Nc3ccc(N4CCOCC4)cc3)n2)c1)c1c(F)cccc1F

>  <sign>
=

>  <IC50, nM>
1300

$$$$
>  <record-smiles>
O=C(Nc1cccc(-c2nc3sccn3c2-c2ccnc(Nc3ccccc3)n2)c1)c1ccccc1Cl

>  <sign>
>

>  <IC50, nM>
12500

$$$$
>  <record-smiles>
O=C(Cc1ccccc1)Nc1cccc(-c2nc3sccn3c2-c2ccnc(Nc3ccc4c(c3)CCNC4)n2)c1

>  <sign>
=

>  <IC50, nM>
27

$$$$
>  <record-smiles>
O=C(Nc1cccc(-c2nc3sccn3c2-c2ccnc(Nc3ccc4c(c3)CCNC4)n2)c1)c1c(F)cccc1F

>  <sign>
=

>  <IC50, nM>
100

$$$$
>  <record-smiles>
Nc1nc2ccc(-c3c(-c4cccc(NC(=O)c5ccccc5Cl)c4)nc4sccn34)cc2[nH]1

>  <sign>
>

>  <IC50, nM>
12500

$$$$
>  <record-smiles>
O=C(Nc1cccc(-c2nc3sccn3c2-c2ccnc(Nc3cccc(N4CCOCC4)c3)n2)c1)c1c(F)cccc1F

>  <sign>
=

>  <IC50, nM>
3800

$$$$
>  <record-smiles>
CCN1CCN(c2ccc(Nc3nccc(-c4c(-c5cccc(NC(=O)Cc6ccccc6)c5)nc5sccn45)n3)cc2)CC1

>  <sign>
=

>  <IC50, nM>
52

$$$$
>  <record-smiles>
O=[N+]([O-])c1cccc(-c2nc3sccn3c2-c2ccnc(Nc3ccccc3)n2)c1

>  <sign>
>

>  <IC50, nM>
12500

$$$$
>  <record-smiles>
O=C(Nc1cccc(-c2nc3sccn3c2-c2ccnc(Nc3ccc(N4CCOCC4)cc3)n2)c1)Oc1ccccc1

>  <sign>
=

>  <IC50, nM>
450

$$$$
>  <record-smiles>
O=C(Nc1cccc(-c2nc3sccn3c2-c2ccncc2)c1)c1ccccc1Cl

>  <sign>
>

>  <IC50, nM>
12500

$$$$
>  <record-smiles>
CCN1CCN(c2ccc(Nc3nccc(-c4c(-c5cccc(NC(=O)c6c(F)cccc6F)c5)nc5sccn45)n3)cc2)CC1

>  <sign>
=

>  <IC50, nM>
230

$$$$
>  <record-smiles>
CN(C)CCc1ccc(Nc2nccc(-c3c(-c4cccc(NC(=O)c5c(F)cccc5F)c4)nc4sccn34)n2)cc1

>  <sign>
=

>  <IC50, nM>
210

$$$$
>  <record-smiles>
O=C(Nc1cccc(-c2nc3sccn3c2-c2ccnc(Nc3ccc(N4CCOCC4)cc3)n2)c1)c1ccccc1

>  <sign>
=

>  <IC50, nM>
1500

$$$$
>  <record-smiles>
O=C(Nc1cccc(-c2nc3sccn3c2-c2ccnc(Nc3ccccc3)n2)c1)c1ccccc1

>  <sign>
>

>  <IC50, nM>
12500

$$$$
>  <record-smiles>
CN1CCc2cc(Nc3nccc(-c4c(-c5cccc(NC(=O)Cc6ccccc6)c5)nc5sccn45)n3)ccc2C1

>  <sign>
=

>  <IC50, nM>
81

$$$$
>  <record-smiles>
O=C(Nc1ccccc1)Nc1cccc(-c2nc3sccn3c2-c2ccnc(Nc3ccc(N4CCOCC4)cc3)n2)c1

>  <sign>
=

>  <IC50, nM>
590

$$$$
>  <record-smiles>
O=C(CC1CCCC1)Nc1cccc(-c2nc3sccn3c2-c2ccnc(Nc3ccc(N4CCOCC4)cc3)n2)c1

>  <sign>
=

>  <IC50, nM>
580

$$$$
>  <record-smiles>
O=C(CC1CCCCC1)Nc1cccc(-c2nc3sccn3c2-c2ccnc(Nc3ccc(N4CCOCC4)cc3)n2)c1

>  <sign>
=

>  <IC50, nM>
1100

$$$$
